target: Rhesus PDE2A3 (Macaca mulatta, UniProt B3VTJ2); experiment: PDE2 fluorescence polarization (IMAP FP) assay, rhesus PDE2A3; assay type: biochemical, rhesus macaque; conditions: Lab B, read-out: Rhesus PDE2 Ki (nM) Lab B
Sequence (B3VTJ2 1-941): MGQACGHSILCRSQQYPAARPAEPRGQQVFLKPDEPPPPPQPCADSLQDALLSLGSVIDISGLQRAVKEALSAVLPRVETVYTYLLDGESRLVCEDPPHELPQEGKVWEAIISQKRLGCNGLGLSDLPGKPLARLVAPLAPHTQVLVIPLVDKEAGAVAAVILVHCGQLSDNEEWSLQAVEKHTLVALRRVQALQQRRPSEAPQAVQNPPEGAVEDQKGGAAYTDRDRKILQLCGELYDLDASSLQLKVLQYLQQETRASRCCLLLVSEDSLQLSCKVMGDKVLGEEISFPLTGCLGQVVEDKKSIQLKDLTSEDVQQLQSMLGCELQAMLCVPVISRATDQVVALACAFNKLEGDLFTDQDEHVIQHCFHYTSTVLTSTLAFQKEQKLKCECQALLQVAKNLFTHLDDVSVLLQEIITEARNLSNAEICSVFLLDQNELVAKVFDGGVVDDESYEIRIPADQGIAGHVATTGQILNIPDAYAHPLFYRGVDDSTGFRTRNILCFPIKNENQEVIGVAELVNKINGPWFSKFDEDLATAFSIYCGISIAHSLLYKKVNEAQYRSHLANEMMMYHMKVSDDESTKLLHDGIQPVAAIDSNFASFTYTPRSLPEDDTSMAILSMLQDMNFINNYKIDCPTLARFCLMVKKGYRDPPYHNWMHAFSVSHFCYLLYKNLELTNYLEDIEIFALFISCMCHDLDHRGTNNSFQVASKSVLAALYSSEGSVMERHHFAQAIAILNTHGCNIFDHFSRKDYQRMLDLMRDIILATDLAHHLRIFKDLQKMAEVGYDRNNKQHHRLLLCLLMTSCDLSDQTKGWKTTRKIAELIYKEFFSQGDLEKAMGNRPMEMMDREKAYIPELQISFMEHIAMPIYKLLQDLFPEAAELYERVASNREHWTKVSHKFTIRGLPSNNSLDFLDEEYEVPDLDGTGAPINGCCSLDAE
Entries and their Ki
# number only, unit nM dropped from output

| COMPOUND | Ki [nM] |
| --- | --- |
| CC(C)C(c1ccc(C(F)(F)F)cc1F)n1nc(CO)c2c(=O)[nH]c(N(C)C)nc21 (single isomer, unassigned) [Example 133] | 0.6 |

Exercise: For Rhesus PDE2A3 (Macaca mulatta, UniProt B3VTJ2), give the measured Ki of the entry CN(C)c1nc2c(c(CF)nn2C(c2ccc(OC(F)F)c(F)c2)C2CC2)c(=O)[nH]1 (single isomer, unassigned) [Example 188]
Solution: 0.41

Exercise: For Rhesus PDE2A3 (Macaca mulatta, UniProt B3VTJ2), give the measured Ki of the entry O=c1[nH]c(O)nc2c1c(CO)nn2C(c1ccc(C(F)(F)F)cc1)C1CC1 (single isomer, unassigned) [Example 15]
Solution: 17

Exercise: For Rhesus PDE2A3 (Macaca mulatta, UniProt B3VTJ2), give the measured Ki of the entry CCC(c1ccc(OC(F)F)c(F)c1)n1nc(CO)c2c(=O)[nH]c(N(C)C)nc21 (single isomer, unassigned) [Example 127]
Solution: 1.4

Exercise: For Rhesus PDE2A3 (Macaca mulatta, UniProt B3VTJ2), give the measured Ki of the entry O=c1[nH]c(O)nc2c1c(CC(F)(F)F)nn2C(c1ccc(OC(F)(F)F)c(F)c1)C1CC1 (single isomer, unassigned) [Example 252]
Solution: 68

Exercise: For Rhesus PDE2A3 (Macaca mulatta, UniProt B3VTJ2), give the measured Ki of the entry O=c1[nH]c(O)nc2c1c(CF)nn2[C@H](c1ccc(C(F)(F)F)c(F)c1)C1CC1 [Example 48]
Solution: 6.2

Exercise: For Rhesus PDE2A3 (Macaca mulatta, UniProt B3VTJ2), give the measured Ki of the entry C[C@@H](c1ccc(C(F)(F)F)cc1)n1nc(CF)c2c(=O)[nH]c(N3CCCC3)nc21 [Example 226]
Solution: 0.26

Exercise: For Rhesus PDE2A3 (Macaca mulatta, UniProt B3VTJ2), give the measured Ki of the entry CC(c1ccc(C(C)(C)C)cc1)n1nc(CC(F)(F)F)c2c(=O)[nH]c(O)nc21 (single isomer, unassigned) [Example 237]
Solution: 494

* * *

target: Rhesus PDE2A3 (Macaca mulatta); assay: PDE2 fluorescence polarization (IMAP FP) assay, rhesus PDE2A3; assay type: biochemical, rhesus macaque; settings: Lab A, read-out: Rhesus PDE2 Ki (nM) Lab A
Entries and their Ki
# number only, unit nM dropped from output

Consider the reported Ki for these compounds:
| COMPOUND | ASSAY TARGET | MEASURED |
| --- | --- | --- |
| CNc1nc2c(c(C)nn2C(C)c2ccc(C(F)(F)F)cc2)c(=O)[nH]1 (centres unmarked) [Example 269] | Rhesus PDE2A3 (Macaca mulatta) | 139 |
| CC(c1ccc(OC(F)(F)F)cc1)n1nc(CO)c2c(=O)[nH]c(O)nc21 (centres unmarked) [Example 5] | Rhesus PDE2A3 (Macaca mulatta) | 77 |
| CC(c1ccc(C(F)(F)F)cc1)n1nc(CO)c2c(=O)[nH]c(O)nc21 (single isomer, unassigned) [Example 19] | Rhesus PDE2A3 (Macaca mulatta) | 14 |

Could you now consider this next compound?
Exercise: For Rhesus PDE2A3 (Macaca mulatta), give the measured Ki of the entry CC(c1ccc(C(F)(F)F)cc1)n1nc(CF)c2c(=O)[nH]c(O)nc21 (centres unmarked) [Example 41]
Solution: 3.5

* * *

Entries and their Ki
biological target: human PDE2A1 (Homo sapiens (Human)); assay: PDE selectivity IMAP FP assay, human PDE2A1; type: biochemical; conditions: Human PDE2; Lab B; read-out: Human PDE2 Ki (nM) Lab B

| COMPOUND | ASSAY TARGET | Ki |
| --- | --- | --- |
| CC[C@@H](O)c1nn([C@@H](C)c2ccc(C(F)(F)F)cc2)c2nc(O)[nH]c(=O)c12 (mixture of isomers) [Example 294] | human PDE2A1 (Homo sapiens (Human)) | 105 nM |

Exercise: Kindly indicate its recorded Ki. Item: CC(c1ccc(OC(F)F)c(F)c1)n1nc(C(F)(F)F)c2c(=O)[nH]c(O)nc21 (single isomer, unassigned) [Example 324]
Solution: 6.8 nM

Exercise: Kindly indicate its recorded Ki. Item: CN(C)c1nc2c(c(CO)nn2C(c2ccc(C(F)(F)F)c(F)c2)C2CC2)c(=O)[nH]1 (single isomer, unassigned) [Example 150]
Solution: 0.12 nM

Exercise: Kindly indicate its recorded Ki. Item: CC(c1ccc(C(F)(F)F)cc1)n1nc(CC(F)(F)F)c2c(=O)[nH]c(O)nc21 (single isomer, unassigned)
Solution: 2 nM

Exercise: Kindly indicate its recorded Ki. Item: O=c1[nH]c(O)nc2c1c(CC(F)(F)F)nn2C(c1ccc(C(F)(F)F)c(F)c1)C1CC1 (single isomer, unassigned)
Solution: 5.8 nM

Exercise: Kindly indicate its recorded Ki. Item: CN(C)c1nc2c(c(CO)nn2C(c2ccc(C(F)(F)F)cc2)C2CC2)c(=O)[nH]1 (single isomer, unassigned) [Example 74]
Solution: 0.17 nM

Exercise: Kindly indicate its recorded Ki. Item: CC(C)C(c1ccc(C(F)(F)F)cc1F)n1nc(CF)c2c(=O)[nH]c(N(C)C)nc21 (single isomer, unassigned) [Example 200]
Solution: 0.041 nM

* * *

molecular target: human PDE2A1 (Homo sapiens (Human), UniProt O00408); test: PDE selectivity IMAP FP assay, human PDE2A1; format: biochemical; conditions: Human PDE2; Lab A; read-out: Human PDE2 Ki (nM) Lab A
Sequence (O00408 other isoform, or with tags, fused parts or gaps): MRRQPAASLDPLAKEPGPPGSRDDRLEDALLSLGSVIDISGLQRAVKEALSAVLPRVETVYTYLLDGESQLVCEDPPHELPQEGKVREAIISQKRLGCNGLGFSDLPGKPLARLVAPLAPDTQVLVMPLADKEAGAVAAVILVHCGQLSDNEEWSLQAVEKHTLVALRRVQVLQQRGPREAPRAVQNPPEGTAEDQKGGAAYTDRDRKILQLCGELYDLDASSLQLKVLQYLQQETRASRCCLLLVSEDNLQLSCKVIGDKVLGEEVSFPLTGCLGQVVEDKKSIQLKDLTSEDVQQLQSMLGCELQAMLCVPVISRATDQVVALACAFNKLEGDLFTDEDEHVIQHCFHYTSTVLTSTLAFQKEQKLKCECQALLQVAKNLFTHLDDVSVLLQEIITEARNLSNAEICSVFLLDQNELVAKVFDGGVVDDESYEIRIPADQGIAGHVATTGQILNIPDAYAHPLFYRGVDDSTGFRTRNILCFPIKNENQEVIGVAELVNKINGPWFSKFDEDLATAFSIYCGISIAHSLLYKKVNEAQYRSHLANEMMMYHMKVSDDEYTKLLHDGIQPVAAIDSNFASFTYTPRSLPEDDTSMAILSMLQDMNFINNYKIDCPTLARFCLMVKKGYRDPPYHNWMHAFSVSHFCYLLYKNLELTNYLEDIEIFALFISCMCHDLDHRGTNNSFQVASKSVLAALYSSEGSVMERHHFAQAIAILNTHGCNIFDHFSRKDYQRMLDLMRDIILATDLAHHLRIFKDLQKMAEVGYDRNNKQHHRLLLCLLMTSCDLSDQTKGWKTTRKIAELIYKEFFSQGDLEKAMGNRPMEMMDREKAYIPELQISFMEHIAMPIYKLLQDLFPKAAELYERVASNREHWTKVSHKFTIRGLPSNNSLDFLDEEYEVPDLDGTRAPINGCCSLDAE
Recorded Ki determines the label; the label ranges are lo: < 6 nM; med: ≥ 6 nM and < 50 nM; hi: ≥ 50 nM

| COMPOUND | ASSAY TARGET | LABEL |
| --- | --- | --- |
| CC(c1ccc(C(F)(F)F)cc1)n1nc(CF)c2c(=O)[nH]c(O)nc21 (stereo not shown) [Example 41] | human PDE2A1 (Homo sapiens (Human), UniProt O00408) | lo |
| CC(c1ccc(OC(F)(F)F)cc1)n1nc(CF)c2c(=O)[nH]c(O)nc21 (stereo not shown) [Example 36] | human PDE2A1 (Homo sapiens (Human), UniProt O00408) | med |
| Cc1nn(C(C)c2ccc(OC(F)(F)F)cc2)c2nc(O)[nH]c(=O)c12 (stereo not shown) [Example 60] | human PDE2A1 (Homo sapiens (Human), UniProt O00408) | hi |
| Cc1nn(C(C)c2ccc(C(F)(F)F)cc2)c2nc(N3CCCC3)[nH]c(=O)c12 (stereo not shown) [Example 268] | human PDE2A1 (Homo sapiens (Human), UniProt O00408) | lo |
| CNc1nc2c(c(C)nn2C(C)c2ccc(C(F)(F)F)cc2)c(=O)[nH]1 (stereo not shown) [Example 269] | human PDE2A1 (Homo sapiens (Human), UniProt O00408) | hi |

Exercise: For the record CC(c1ccc(C(C)(C)C)cc1)n1nc(CO)c2c(=O)[nH]c(O)nc21 (stereo not shown) [Example 7] , report the class its Ki corresponds to.
Solution: med

Exercise: For the record CC(c1ccc(OC(F)(F)F)cc1)n1nc(CO)c2c(=O)[nH]c(O)nc21 (stereo not shown) [Example 5] , report the class its Ki corresponds to.
Solution: hi

Exercise: For the record O=c1[nH]c(O)nc2c1c(CF)nn2C(c1ccc(C(F)(F)F)cc1)C1CC1 (stereo not shown) [Example 39] , report the class its Ki corresponds to.
Solution: lo

Exercise: For the record COc1nc2c(c(C)nn2C(C)c2ccc(C(F)(F)F)cc2)c(=O)[nH]1 (stereo not shown) [Example 59] , report the class its Ki corresponds to.
Solution: hi

Exercise: For the record Cc1ccc(C(C)n2nc(CCl)c3c(=O)[nH]c(O)nc32)cc1 (stereo not shown) [Example 57] , report the class its Ki corresponds to.
Solution: med

Exercise: For the record Cc1nn(C(C)c2ccc(C(F)(F)F)cc2)c2nc(N(C)C)[nH]c(=O)c12 (stereo not shown) [Example 270] , report the class its Ki corresponds to.
Solution: lo

* * *

Entries and their log10 of Ki
target: UniProt:O00408; test: PDE selectivity IMAP FP assay, human PDE2A1; format: biochemical; conditions: Human PDE2; Lab B; read-out: Human PDE2 Ki (nM) Lab B
Please keep in mind that the values are log10 of Ki expressed in nM.

Consider the reported log10 of Ki for these molecules:
| MOLECULE | log10 of Ki |
| --- | --- |
| CCC(c1ccc(C(C)(F)F)cc1)n1nc(CO)c2c(=O)[nH]c(N(C)C)nc21 (single isomer, unassigned) [Example 136] | 0.28 |
| CC(C)C(c1ccc(C(C)(F)F)cc1)n1nc(CF)c2c(=O)[nH]c(N(C)C)nc21 (single isomer, unassigned) [Example 206] | -0.43 |
| C[C@@H](c1ccc(C(F)(F)F)cc1)n1nc(CO)c2c(=O)[nH]c(N3CCC3)nc21 | -0.05 |
| CC(C)C(c1ccc(OC(F)F)cc1)n1nc(CF)c2c(=O)[nH]c(N(C)C)nc21 (single isomer, unassigned) [Example 184] | -0.72 |

Could you now consider this next molecule?
Exercise: Kindly indicate its recorded log10 of Ki. Item: CC(c1ccc(C(F)(F)F)cc1F)n1nc(CO)c2c(=O)[nH]c(N(C)C)nc21 (single isomer, unassigned) [Example 80]
Solution: 1.40
